Literature-derived pIC50 for Ubiquitin carboxyl-terminal hydrolase 7 (Homo sapiens, UniProt Q93009) follows.
Sequence (Q93009 whole entry): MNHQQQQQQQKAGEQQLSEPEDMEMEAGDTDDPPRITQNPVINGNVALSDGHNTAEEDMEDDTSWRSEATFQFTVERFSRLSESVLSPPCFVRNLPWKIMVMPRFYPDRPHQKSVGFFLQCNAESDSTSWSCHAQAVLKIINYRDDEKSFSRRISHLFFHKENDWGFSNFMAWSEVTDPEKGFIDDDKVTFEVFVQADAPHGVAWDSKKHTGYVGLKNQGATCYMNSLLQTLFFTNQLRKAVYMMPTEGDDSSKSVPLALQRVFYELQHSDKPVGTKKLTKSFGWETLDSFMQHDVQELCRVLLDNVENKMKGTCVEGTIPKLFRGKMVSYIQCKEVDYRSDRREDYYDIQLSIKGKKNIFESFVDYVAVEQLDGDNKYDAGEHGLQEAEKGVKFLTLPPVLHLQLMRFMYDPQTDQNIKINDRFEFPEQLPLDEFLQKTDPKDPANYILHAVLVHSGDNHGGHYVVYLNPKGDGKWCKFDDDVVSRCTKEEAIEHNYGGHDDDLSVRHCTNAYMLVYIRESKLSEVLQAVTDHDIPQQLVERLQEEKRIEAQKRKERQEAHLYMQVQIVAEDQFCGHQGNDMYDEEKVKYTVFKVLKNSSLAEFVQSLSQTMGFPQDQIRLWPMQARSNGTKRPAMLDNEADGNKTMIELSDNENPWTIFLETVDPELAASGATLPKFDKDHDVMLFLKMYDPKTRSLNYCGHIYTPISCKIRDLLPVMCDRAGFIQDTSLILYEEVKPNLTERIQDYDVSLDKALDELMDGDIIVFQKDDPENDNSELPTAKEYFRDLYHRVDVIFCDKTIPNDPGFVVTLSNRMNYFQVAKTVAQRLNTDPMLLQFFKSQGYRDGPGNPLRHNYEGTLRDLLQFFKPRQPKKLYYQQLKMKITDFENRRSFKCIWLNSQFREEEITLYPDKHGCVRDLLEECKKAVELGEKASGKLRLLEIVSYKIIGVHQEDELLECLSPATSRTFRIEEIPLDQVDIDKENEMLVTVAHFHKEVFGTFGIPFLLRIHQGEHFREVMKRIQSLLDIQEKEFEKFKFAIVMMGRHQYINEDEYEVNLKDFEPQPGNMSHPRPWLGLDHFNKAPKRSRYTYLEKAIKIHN
pIC50: −log10 of the molar value.

CC(=O)NCc1cc2ncnc(-c3cc(Cl)cc4c3O[C@@H](c3onc5c3CNCC5)C4)c2s1: > 6.00
Cc1cnn(Cc2cc3nccc(-c4cc(Cl)cc5c4N([C@@H]4CNC6(CCC6)C4)CCC5)c3s2)c(=O)c1: > 8.00
Cc1cc(Cl)cc(-c2ncnc3cc(CN4C(=O)C5CCC5C4=O)sc23)c1CC1CNCC(C)(C)O1 (centres unmarked): > 8.00
O=c1ccn(C2CC(F)(F)C2)c(=O)n1Cc1cc2nccc(-c3cc(Cl)cc4c3N([C@H]3CCNC3)CCC4)c2s1: > 8.00

Name the recorded pIC50 for Clc1cc2c(c(-c3ccnc4ccsc34)c1)O[C@@H](c1ocnc1CN1CCC1)C2 . > 6.00
